TEST METHOD NOTES: qHTS Assay for Lipid Storage Modulators in Drosophila S3 Cells
TEST PARAMETERS: BODIPY lipid droplet fluorescence, 18-24 h, cells fed with added oleic acid; series mostly up to 46.1 µM
The whole screen tested about 320,000 compounds, of which about 2,100 (0.66%) were called active. Not shown: some 53% with an inconclusive outcome. Calls follow the shape of the dose curve; as a rule, active = well fitted inhibition curve with a large enough effect in the signal ratio, with a control signal flat (not every such curve was filed as active); inconclusive = small, poorly fitted or top-dose-only effect, or effect the other way, or a change in a side signal; inactive = flat fitted curve, though single readings scatter; the % refers to the signal ratio. The sample holds actives, similar compounds and a random draw of the others, so the mix is not that of the screen.
API: response.call in yes (1) (active), no (0) (inactive)

What classification did CCN(CC)C(=O)C(Oc1ccc(S(=O)(=O)N2CCCC2)cc1[N+](=O)[O-])c1ccccc1 (stereo not given) end up with in this test?
no (0)

What classification did Cc1ccc(CS(=O)(=O)c2ncc(Cl)c(C(=O)Nc3nnc(C(C)C)s3)n2)cc1 end up with in this test?
no (0)

What classification did Cc1cccc(CS(=O)(=O)c2ncc(Cl)c(C(=O)Nc3c(C)cccc3C)n2)c1 end up with in this test?
no (0)

What classification did CC(C)c1nnc(NC(=O)c2nc(S(=O)(=O)Cc3ccccc3F)ncc2Cl)s1 end up with in this test?
yes (1)

What classification did COc1ccc([C@@H]2[C@@H]3C(=O)N(C(C)(C)C)C(=O)[C@@H]3[C@]3(CC(C)C)C(=O)N(c4ccc(C(F)(F)F)cc4)C(=O)N23)cc1 end up with in this test?
yes (1)

What classification did CCCN1CCN(C(=O)c2nn(-c3ccc(OC)cc3)c(=O)c3c2c2ccccc2n3C)CC1 end up with in this test?
no (0)

What classification did Cc1c(CCOC(=O)C23CC4(C)CC(C)(CC(C)(C4)C2)C3)sc[n+]1CC(=O)c1ccccc1 end up with in this test?
yes (1)

What classification did O=C(NCc1ccc2c(c1)OCO2)c1nc(S(=O)(=O)Cc2ccccc2)ncc1Cl end up with in this test?
no (0)

What classification did Cn1nnnc1SCC(=O)Nc1ccc(Cl)c(S(=O)(=O)N2CCOCC2)c1 end up with in this test?
no (0)

What classification did COC(=O)c1c(N)sc(C(=O)N2CCOCC2)c1C end up with in this test?
no (0)

What classification did COc1ccc(CCNC(=O)CSc2ccc(-c3ccccc3)nn2)cc1 end up with in this test?
no (0)

What classification did COC(=O)c1c(NC(=O)CCl)sc(C(=O)N2CCOCC2)c1C end up with in this test?
yes (1)

What classification did CCOC(=O)C(NC(=O)CC)(Nc1ccc(S(N)(=O)=O)cc1)C(F)(F)F (stereo not given) end up with in this test?
no (0)

What classification did Cc1onc(-c2ccccc2)c1C(=O)N/N=C/c1ccc(Br)cc1 end up with in this test?
no (0)

What classification did O=C(NNC(=O)c1ccccc1O)c1ccc(NS(=O)(=O)c2ccc(F)c(F)c2)cc1 end up with in this test?
no (0)

What classification did O=C(Nc1ccc(OC(F)F)cc1)c1ccccn1 end up with in this test?
no (0)

What classification did CCOc1ccc(/C=N/NC(=O)c2cc3ccccc3cc2OC)cc1 end up with in this test?
no (0)

---

cell number change for assorted compounds
TEST METHOD NOTES: qHTS Assay for Lipid Storage Modulators in Drosophila S3 Cells;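 as to cell number change: cells counted by Cell Tracker Red CMTPX staining in the red channel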
TEST PARAMETERS: BODIPY lipid droplet fluorescence, 18-24 h, cells fed with added oleic acid; measured here: cell count max response
Among all 320,000 compounds or so, about 2,100 (0.66%) were called active. Not shown: some 53% with an inconclusive outcome. For the sample, actives were picked, then their nearest neighbours and some compounds at random.
Report as a plain number; the unit % is understood.

C=CCOc1ccc(-c2nc3c(c(=O)[nH]c(=O)n3CCCC)n2C)cc1Br ... 12.1
CCN(CC)S(=O)(=O)c1ccc(S(=O)(=O)N2CCCC2)cc1 ... 4.33
COc1ccc(CNc2oc(-c3cccc4ccccc34)nc2C#N)cc1 ... -5.87

Item CCOc1ccc(CCNC(=O)Cn2cccc2C(=O)c2ccccc2)cc1OCC has what recorded cell number change?
-22.9

Item CSc1nsc(SCC(=O)Nc2ccc(C(N)=O)cc2)n1 has what recorded cell number change?
8.7

Item CCOc1ccc(CCNC(=O)CCn2cccc2)cc1OCC has what recorded cell number change?
0.009

Item COc1ccc(CCNC(=O)CN2C(=O)c3ccccc3S2(=O)=O)cc1 has what recorded cell number change?
8.78

Item C=CCNC(=S)NNC(=O)c1ccc(Br)cc1 has what recorded cell number change?
-6.86

Item Nc1nnc(SCC(=O)Nc2ccc(Cl)c(C(=O)O)c2)s1 has what recorded cell number change?
-0.289

Item CCCCn1c(=O)[nH]c(=O)c2c1nc(-c1cccc(OC)c1)n2C has what recorded cell number change?
-6.05

Item CCCCn1c(=O)[nH]c(=O)c2c1nc(-c1ccc(OCC)cc1)n2CC has what recorded cell number change?
-8.47

Item CCCn1c(O)c(N=NC(=O)CNC(=O)c2cccnc2)c2ccccc21 has what recorded cell number change?
6.42

Item Cc1ccc(S(=O)(=O)NNC(=O)C2CCCCC2)cc1 has what recorded cell number change?
6.31

---

cell number change for assorted molecules
TEST METHOD NOTES: qHTS Assay for Lipid Storage Modulators in Drosophila S3 Cells;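 as to cell number change: cells counted by Cell Tracker Red CMTPX staining in the red channel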
TEST PARAMETERS: BODIPY lipid droplet fluorescence, 18-24 h, cells fed with added oleic acid; measured here: cell count max response
Among all 320,000 compounds or so, about 2,100 (0.66%) were called active. Inconclusive results (about 53%) are left out. This is one part of a sample in which actives are shown more often than they occur.
Report as a plain number; the unit % is understood.

Item Cc1cc(C)cc(NC(=O)Cc2ccc(-n3cccc3)cc2)c1 has what recorded cell number change?
-7.37

---

TEST METHOD NOTES: qHTS Assay for Lipid Storage Modulators in Drosophila S3 Cells
TEST PARAMETERS: BODIPY lipid droplet fluorescence, 18-24 h, cells fed with added oleic acid; series mostly up to 46.1 µM
The campaign covered roughly 320,000 compounds. About 2,100 (0.66%) were called active. Another 53% or so got no clear call; they are omitted. Calls come from the whole dose curve; as a rule, active = well fitted inhibition curve with a large enough effect in the signal ratio, with a control signal flat (not every such curve was filed as active); inconclusive = small, poorly fitted or top-dose-only effect, or effect the other way, or a change in a side signal; inactive = flat fitted curve, though single readings scatter; the % refers to the signal ratio. The sample holds actives, similar compounds and a random draw of the others, so the mix is not that of the screen.
API: response.call in true (1) for active, false (0) for inactive

Here's what some known entries look like.
COc1ccc(S(=O)(=O)N2CCN(C(=O)C3CC3)CC2)cc1 ... false (0)
CCN(CC)c1nc(-c2ccc(C(=O)NN)cc2)nc(-c2ccc(C(=O)NN)cc2)n1 ... false (0)
CCN(CC)c1nc(SCC(=O)O)nc(N(CC)CC)n1 ... false (0)

What classification did O=C(CCN1C(=O)NC2(CCCC2)C1=O)Nc1cccc(S(=O)(=O)N2CCOCC2)c1 end up with in this test?
false (0)

What classification did O=C1S/C(=C\c2ccccc2)C(=O)N1CC(O)Cn1c2ccccc2c2ccccc21 (stereo not given) end up with in this test?
true (1)

---

TEST METHOD NOTES: qHTS Assay for Lipid Storage Modulators in Drosophila S3 Cells;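 as to cell number change: cells counted by Cell Tracker Red CMTPX staining in the red channel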
TEST PARAMETERS: BODIPY lipid droplet fluorescence, 18-24 h, cells fed with added oleic acid; measured here: cell count max response
Hit rate of the full screen: of about 320,000 compounds, about 2,100 (0.66%) were called active. Not shown: some 53% with an inconclusive outcome. This excerpt belongs to a sample that is enriched for actives.
cell number change for assorted molecules
Report as a plain number; the unit % is understood.

Previously resolved entries follow.
CCOC(=O)c1[nH]c(C)c(C(=O)NC2CCCCCC2)c1C ... -7.97
CCCCC[C@H]1CN(CCc2ccccc2)C(=O)[C@@H]1CC(=O)NCc1ccc(OC)cc1 ... -13.8
COc1ccc(-c2cc(C(=O)O)[nH]n2)cc1OC ... -22.4
CCCCN1C[C@H](Cc2ccccc2)[C@@H](CC(=O)NCc2ccc(OC)cc2)C1=O ... 2.91
CC(C)C[C@H](NC(=O)NCc1ccc(Cl)cc1)C(=O)O ... -1.47
O=C(NC1CCSC1=O)c1ccc(Cl)cc1 (stereo unspecified) ... 12
COc1cccc(C2CC(C(F)(F)F)n3ncc(C(=O)O)c3N2)c1 (stereo unspecified) ... -3.05
Cc1ccc(S(=O)(=O)c2cc3c(=O)n4cccc(C)c4nc3n(CC3CCCO3)c2=N)cc1C (stereo unspecified) ... 7.15

Item Cc1cccc(NC(=O)C2CCCN2C(=O)Oc2ccccc2)c1 (stereo unspecified) has what recorded cell number change?
-1.72

Item COc1ccc(C(C)=O)cc1COC(=O)c1cnc(C)cn1 has what recorded cell number change?
5.96

Item O=C(O)c1cc(-c2ccccc2)n[nH]1 has what recorded cell number change?
-6.51

---

TEST METHOD NOTES: qHTS Assay for Lipid Storage Modulators in Drosophila S3 Cells;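 as to cell number change: cells counted by Cell Tracker Red CMTPX staining in the red channel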
TEST PARAMETERS: BODIPY lipid droplet fluorescence, 18-24 h, cells fed with added oleic acid; measured here: cell count max response
In all, about 320,000 compounds went through this assay and about 2,100 (0.66%) were called active. Not shown: some 53% with an inconclusive outcome. Many of the other results were omitted from the sample, so actives are more common in it than they were.
cell number change for assorted compounds
Report as a plain number; the unit % is understood.

Previously resolved entries follow.
O=C(/C=C/Nc1ccc(Br)cn1)c1cccc(OC(F)F)c1 ... 16.6
O=C(Nc1ccc(Cl)c([N+](=O)[O-])c1)c1ccc2c(c1)OCCO2 ... 0.135
CCn1cc([N+](=O)[O-])c(C(=O)N2CCCC2)n1 ... -10.5

Item CCc1c(C)sc(NC(=O)c2cccs2)c1C#N has what recorded cell number change?
-15.6

Item COc1ccc(C(=O)O)cc1S(=O)(=O)Nc1cc(Cl)ccc1N1CCOCC1 has what recorded cell number change?
11.4

Item Cc1cc(Cl)c2oc(C(=O)N(C)CCc3cnn(C)c3)c(C)c2c1 has what recorded cell number change?
-0.298

Item Cc1cc(Cl)c2oc(C(=O)N(C)CC3CCOCC3)c(C)c2c1 has what recorded cell number change?
-6.12

Item Cc1cccc2cc3c(N)c(C(=O)Nc4ccc(N5CCOCC5)cc4)sc3nc12 has what recorded cell number change?
-1.66

Item Cc1ccc2c(c1)C(=O)C(=O)N2CCCOc1ccccc1C has what recorded cell number change?
-3.05

Item CCc1noc(C)c1C(=O)Nc1cccc2ncccc12 has what recorded cell number change?
-8.65
